target: Fuc(a1-2)Gal(b1-4)[Fuc(a1-3)]GlcNAc; test: glycan array binding signal (z-score within array); higher = stronger binding; conditions: glycan notation: IUPAC condensed, linker removed
The sample as a whole holds a higher share of the strongest signals than the screen did.
MEASURED_PARAMETER: glycan array binding signal (z-score)

binder="cFel (Cyprinus carpio), P68512 (protein) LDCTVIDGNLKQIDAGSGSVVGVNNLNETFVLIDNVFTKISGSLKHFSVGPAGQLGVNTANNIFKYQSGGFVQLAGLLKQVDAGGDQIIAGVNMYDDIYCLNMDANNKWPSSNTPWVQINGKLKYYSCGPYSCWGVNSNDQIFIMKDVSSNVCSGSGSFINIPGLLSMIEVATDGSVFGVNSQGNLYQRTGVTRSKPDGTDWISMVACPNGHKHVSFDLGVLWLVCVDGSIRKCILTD" experimental_result=0.152
binder="HPA (Helix pomatia), Q2F1K8 (protein) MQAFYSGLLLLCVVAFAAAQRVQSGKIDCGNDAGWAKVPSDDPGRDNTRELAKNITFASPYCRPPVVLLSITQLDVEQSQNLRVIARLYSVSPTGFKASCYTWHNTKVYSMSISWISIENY" experimental_result=-0.109
binder="CD23 (Homo sapiens) (protein) MELQVSSGFVCNTCPEKWINFQRKCYYFGKGTKQWVHARYACDDMEGQLVSIHSPEEQDFLTKHASHTGSWIGLRNLDLKGEFIWVDGSHVDYSNWAPGEPTSRSQGEDCVMMRGSGRWNDAFCDRKLGAWVCDRLATCTPPASEGSAESMGPDSRPDPDGRLPTPSAPLHS" experimental_result=0.228
